Sourced from the supplement of paper PMC13380429

Reported inhibition of SARS-CoV-2 cytopathic effect values follow for various compounds
# Test system: Vero E6 infected with SARS-CoV-2
# experiment: inhibition of SARS-CoV-2 cytopathic effect; higher = more antiviral protection, active = above 15
# recorded-conditions: 8.33 nM; 48 h
readout-kind: inhibition of SARS-CoV-2 cytopathic effect (%)

COC(=O)CCC(=O)CN [methyl-aminolevulinate]
2.46
CCn1nc(C(=O)O)c(=O)c2cc3c(cc21)OCO3
-0.24
O[C@H]1CC[C@H](Nc2nc(-c3ccccc3)nc3[nH]ccc23)CC1
-3.12
Cc1nc(-c2cn3c(n2)-c2ccc(-c4cnn(C(C)(C)C(N)=O)c4)cc2OCC3)n(C(C)C)n1
1.62
C[C@]12CCC(=O)C=C1C=C[C@@H]1[C@@H]2CC[C@@]2(C)[C@H]1CC[C@@]21CCC(=O)O1
-1.41
O=C1NC(=O)[C@@H](c2cn3c4c(cccc24)CCC3)[C@@H]1c1c[nH]c2ccccc12 [tivantinib]
-0.11
COc1cc(C[C@@H](CO)[C@H](CO)Cc2ccc(O)c(OC)c2)ccc1O [secoisolariciresinol-(-)]
5.68
COc1ccc2nc3ccc(Cl)cc3c(SCCCN)c2c1
1
N#CCNC(=O)c1ccc(-c2ccnc(Nc3ccc(N4CCOCC4)cc3)n2)cc1
-0.77
